- Tested on: DU-145 prostate
- ASSAY_REMARKS: NCI-60 one-dose screen, 48 h (100 = growth as untreated, 0 = no growth, -100 = all killed)
- APPLIED_CONDITIONS: 10 µM unless noted
The panel holds about 83,000 compounds, 20% with a hit somewhere; the sample as a whole holds those more often.
Rule for this label: 1 (yes) means growth is less than 20%; 0 (no) means growth is at least 20%.

Prompt: Hello, is growth of the following compound strictly smaller than 20%? Nc1nccc2c1ccn2-c1cccc(NC(=O)c2ccc(N3CCOCC3)c(C(F)(F)F)c2)c1
Completion: 1 (yes)

Prompt: Given O=C(NOC1OC(CO)C(O)C(O)C1O)Nc1ccccc1 (configuration not stated) , is recorded growth strictly lower than 20%?
Completion: 0 (no)

Prompt: is_below(growth, 20%) for CCCc1nn2c(CCC(=O)c3nc4ccc([N+](=O)[O-])cc4[nH]3)nnc2s1 ?
Completion: 0 (no)

Prompt: Is 20% strictly greater than the compound's reported growth? compound: CCCOC(=O)c1ccc([N+](=O)[O-])o1
Completion: 0 (no)

Prompt: Please check: growth for CC(C)C(=O)Nc1nc2c(s1)CCCc1ccn(S(=O)(=O)c3ccccc3)c1-2 , strictly under 20% or not?
Completion: 0 (no)

Prompt: Hello, I'm reviewing records and need to know if growth of NC(CSC(c1ccccc1)(c1ccccc1)c1ccc(F)cc1)C(=O)O (configuration not stated) is below 20%. Could you check?
Completion: 1 (yes)

Prompt: Does the reported growth of the following compound sit strictly below 20%? Oc1ccc(O)c(-[n+]2ccccc2)c1
Completion: 0 (no)

Prompt: Please let me know if O=C(Nc1ccc(-n2cc(-c3ccncc3)c(-c3ccc(O)c(Cl)c3)n2)cc1)Nc1cccc(Cl)c1Cl shows growth below 20%.
Completion: 0 (no)

Prompt: Please determine if CN(C)C(=O)Nc1nc2cc(Cl)c(Cl)cc2[nH]1 is below 20% in terms of growth.
Completion: 1 (yes)

Prompt: Answer whether the compound Cc1ccc2c(c1)Nc1ccc(C)cc1C2(C)C has growth strictly less than 20%
Completion: 0 (no)

Prompt: Check if growth falls below 20% for O=c1c(-c2ccc3c(c2)OCO3)coc2c(CO)c(O)ccc12 .
Completion: 1 (yes)

Prompt: Is growth of C=C1C(=O)O[C@H]2[C@H]1CC/C(COC(=O)c1ccc(C#N)cc1)=C\CC[C@@]1(C)O[C@@H]21 strictly below 20%?
Completion: 1 (yes)

Prompt: Answer whether the compound CC(C)(C)C(=O)Nc1nc2c(s1)CCc1ccn(S(=O)(=O)c3ccccc3)c1-2 has growth strictly less than 20%
Completion: 0 (no)

Prompt: Would you kindly verify if growth of c1cncc(-c2nc3ccccc3[nH]2)c1 is strictly less than 20%?
Completion: 0 (no)

Prompt: Hello, I'm reviewing records and need to know if growth of Clc1ccc(CN2COc3c(ccc4cccnc34)C2)cc1Cl is below 20%. Could you check?
Completion: 1 (yes)

Prompt: Is 20% strictly greater than the compound's reported growth? compound: Cc1c(C(C)(C)C)cc(C(C)(C)C)c2c1CN(C)CO2
Completion: 0 (no)

Prompt: Dear colleague, could you confirm whether growth of O=C(Nc1ccc(-n2ccc3c(NC(=O)c4ccccc4)nccc32)cc1)Nc1ccc(Cl)c(Cl)c1 falls below 20%? Thanks.
Completion: 1 (yes)

Prompt: Does the reported growth of the following compound sit strictly below 20%? OCc1cnccc1NC12CC3CC(CC(C3)C1)C2
Completion: 0 (no)

Prompt: Lab log: compare recorded growth with 20%; is it strictly lower for COC(=O)c1oc2c(C(=O)/C=C/c3ccc(OC)cc3)c(OCCN3CCOCC3)ccc2c1C ?
Completion: 1 (yes)

Prompt: Consider FC(F)(F)c1cn(CCN2CCOCC2)c2ncnc(Cl)c12 . Does its growth lie strictly below 20%?
Completion: 0 (no)

Prompt: Say whether its growth is strictly beneath 20%. Entry: O=C1c2ccccc2C(=O)c2c(NCCN=Cc3c(O)ccc4ccccc34)cccc21
Completion: 0 (no)

Prompt: Report whether reported growth is lower than 20% (strictly) for CC(NCCC(c1ccccc1)c1ccccc1)c1ccccc1 (configuration not stated)
Completion: 0 (no)

----------
- Test system: HS 578T breast
- ASSAY_REMARKS: NCI-60 one-dose screen, 48 h (100 = growth as untreated, 0 = no growth, -100 = all killed)
- APPLIED_CONDITIONS: 10 µM unless noted
Compounds without any hit were thinned out: in the full panel of roughly 83,000, 20% have a hit.
I'd appreciate it if you could supply growth values for the items below.
Express it in %; write the number only.

Prompt: # lookup: growth of CCN(CC)CCNCC(O)Cc1ccc(OC)cc1 (stereo not given)
Completion: 95.8

Prompt: What does the data say about its growth? Entry: CN[C@@H](CCCNC(N)=NC/C=C(/C)CCC=C(C)C)C(=O)N(C)[C@@H](CCCNC(N)=NCC=C(C)C)C(=O)N[C@H](C)[C@H](OS(=O)(=O)O)c1ccc(OS(=O)(=O)O)c(COS(=O)(=O)O)c1
Completion: 97.3

Prompt: May I ask what growth has been recorded for CN1CCN(CC(O)COc2c(Br)c(Br)c(Br)c3c2OC(C)(C)C3)CC1 (stereo not given) ?
Completion: 55.5

Prompt: Could you tell me which growth is on file for Cc1ccc(=O)n(-c2ccc(Br)cc2F)c1 ?
Completion: 100

Prompt: Field request: growth | item: Oc1ccccc1/C=N/c1ccccn1
Completion: 143

Prompt: Look up growth: C#C[C@@]1(O)[C@@H](CO)O[C@@H](n2cc(C(F)(F)F)c3c(N)ncnc32)[C@@H]1O
Completion: -15.6

Prompt: Recorded growth for CC(C)(C)C(=O)Nc1nc2c(s1)CCc1ccn(S(=O)(=O)c3ccccc3)c1-2 , please?
Completion: 98.6

Prompt: For the compound NC(=O)C1=C[C@H]2[C@H]3C=C[C@@]2(O)C(=O)O[C@@H]3O1 , what growth is on record?
Completion: 83.5

Prompt: I'd like to know its growth. The compound in question is CCN(CC)CCN1C(=O)c2c(c3c4ccccc4[nH]c3c3[nH]c4ccccc4c23)C1=O
Completion: 86.7

Prompt: Give its growth value. Item: C=C1C(=O)O[C@H]2[C@H]1CC/C(COC(=O)c1ccccc1)=C\CC[C@@]1(C)O[C@@H]21
Completion: 44

Prompt: Give the measured growth of CCCC(C)(C)COC(=O)c1cccc(N)c1 .
Completion: 99.3

Prompt: Item under review: Cc1cc[n+](CCCC[n+]2ccc(C)cc2)cc1 . Reported growth?
Completion: 104

Prompt: Which growth reading was recorded for the compound Cc1cc(Nc2ccc(Cl)c(Cl)c2)nc(N)n1 ?
Completion: 92.6

Prompt: Need growth, item O=C(CSc1nnc(-c2cc3c([nH]c4ccccc43)c(-c3cccc(O)c3)n2)n1-c1ccccc1)c1ccccc1
Completion: 73.3

Prompt: Give the measured growth of Cc1[nH]c2ccc(F)cc2c1CCNC(=O)C1CCN(C(=O)c2ccc(-c3ccccc3)cc2)CC1 .
Completion: 72.7

Prompt: // query growth value for entry COc1ccc(-c2nnc(NC(=O)CN3CCN(c4cc5c(cc4F)c(=O)c(C(=O)O)cn5C4CC4)CC3)s2)cc1OC
Completion: 91.5

Prompt: Which value of growth has been reported for CCCCNc1cc(C(=O)O)cc(S(N)(=O)=O)c1Oc1ccccc1 in the records?
Completion: 98.5

Prompt: Which growth value belongs to CC1=C2C(=C[C@@](C)(CO)[C@@H]2OC(=O)N(C)CCN(C)C(=O)OC(C)(C)C)C(=O)[C@](C)(O)C12CC2 ?
Completion: 93.9

Prompt: So what does the record say about growth for COc1cc(-c2nc(N)n(CC(=O)Nc3ccc(/C(C)=N\O)cc3)n2)cc(OC)c1OC ?
Completion: 82.1

Prompt: What measured growth goes with COc1ccc2c(c1)OC(N)=C(C#N)C2c1ccc(F)c(F)c1 (stereo not given) ?
Completion: 35.7

----------
- System: T-47D breast
- ASSAY_REMARKS: NCI-60 one-dose screen, 48 h (100 = growth as untreated, 0 = no growth, -100 = all killed)
- APPLIED_CONDITIONS: 10 µM unless noted
The panel holds about 83,000 compounds, 20% with a hit somewhere; the sample as a whole holds those more often.
MEASURE_NAME: growth (%)
Give just the numeric value; % need not be written.

Prompt: Can you look up growth on T-47D breast for COc1ccc(-c2cc3ccc(N(C)C)cc3nc2N)c(F)c1 ?
Completion: 24.3

Prompt: For T-47D breast, provide growth of Nc1ccc(S(=O)(=O)Nc2ccnn2-c2ccccc2)cc1 please.
Completion: 104

Prompt: Quick check: growth on T-47D breast, item Cc1cn([C@]2(CF)O[C@H](CO)C2C)c(=O)[nH]c1=O (stereo partly specified) ?
Completion: 119

Prompt: # query: growth | item COC(=O)c1ccc(NC(N)=NCC(C)(C)COc2ccc(C(F)(F)F)cc2)nc1 | system: T-47D breast
Completion: 28.7

Prompt: # value lookup — system T-47D breast, readout growth, item COc1ccc(SC2c3ccc(O)cc3Oc3nc(N)c(C#N)c(N)c32)cc1 (stereo unspecified)
Completion: 85.4

Prompt: Give recorded growth with T-47D breast for the following compound: CCOC(=O)n1cnc2c(Cl)ncnc21
Completion: 100

Prompt: // fetch T-47D breast growth for CCOc1cccc(Nc2nc(N)nc3[nH]c4ccc(O)cc4c23)c1
Completion: 18.8

Prompt: GET /values?readout=growth&system=T-47D breast&item= O=C1COc2ccccc2C(=O)N1CCCCNc1ccccc1
Completion: 73.3

Prompt: Observed growth on T-47D breast for O=S(c1ccccc1)c1ccc2nnnn2n1 (stereo unspecified) , please.
Completion: 91.7

Prompt: Hi! What's the reported growth for Cc1ccc(-c2nc3c(N=Nc4ccc(S(N)(=O)=O)cc4)c(N)nn3c(N)c2C#N)cc1 on T-47D breast?
Completion: 34.1

Prompt: What growth appears in the records for this compound with T-47D breast? CCCCOc1c(N)cc(Cl)cc1C(=O)OCCN(CC)CC
Completion: 99.8

The reported measurements were obtained from PubChem BioAssay (NCI).
